- System: CAKI-1 renal
- method: NCI tumour cell line growth inhibition, 48 h
The entries below are paired with their reported GI50.

O=C1c2cc(Cl)ccc2-c2c1c1ccc([N+](=O)[O-])cc1c(=O)n2CCCBr ... 1.72 µM
CC[PH+](CC)CC.O=COC1OC([S-])C(OC=O)C(OC=O)C1OC=O.[Au+] (configuration not stated) ... 1.71 µM
COc1ccc2[nH]c(O)c(C(=Nc3ccc(N(C)C(=O)CN4CCN(C)CC4)cc3)c3ccccc3)c2c1 ... 0.847 µM
CCn1c(-c2nonc2N)nc2c(C#CC(C)(C)O)nc(OCCNC)cc21 ... > 18.2 µM
Cc1cc2c(cc1C)N(C(=O)CCl)CCN2C(=O)CCl ... 1.78 µM

Note to self: GI50 recorded for COc1cc(S(=O)(=O)Nc2ccc(C(=O)/C=C/c3ccc(O)cc3)cc2)ccc1F was > 100 µM

Note to self: GI50 recorded for Cc1cc(Cl)ccc1Nc1nc(C(F)(F)F)ccc1C(=O)N/N=C/c1ccc([N+](=O)[O-])cc1 was 2.24 µM

---

- Test system: SNB-75 CNS
- method: NCI tumour cell line growth inhibition, 48 h
property measured: GI50

Solved cases (5 shown):
COc1cc(/C=C2\C(=O)Nc3ccc(N(C)C)cc32)cc(OC)c1OC ... 1740 nM
CNCCn1c(=O)c2cc(OC)c(OC)cc2c2ccc3cc4c(cc3c21)OCO4 ... 127 nM
CC[O-].CC[O-].O=S(=O)([O-])c1ccc([O-])c2ncccc12.O=S(=O)([O-])c1ccc([O-])c2ncccc12.[Ti+4] ... 72800 nM
N.N.N.N.O=C([O-])C(Cl)Cl.O=C([O-])C(Cl)Cl.[Co+3].[O-][Cl+3]([O-])([O-])[O-] ... > 100000 nM
Cc1ccc2nc(-c3ccc(N(C)C)c(Br)c3)cn2c1 ... 31300 nM

Note to self: GI50 recorded for COC(=O)C1CCc2sc3ncnc(Nc4cn[nH]c4C(=O)Nc4ccc(CN5CCN(C)CC5)cc4)c3c21 (stereo unspecified) was 68.4 nM

Note to self: GI50 recorded for O=C1c2cc(Cl)ccc2-c2c1c1ccc([N+](=O)[O-])cc1c(=O)n2CCCBr was 5960 nM

---

- Test system: NCI-H522 lung
- method: NCI tumour cell line growth inhibition, 48 h; in the data active means GI50 below about 0.43 µM; inactive means the rest
Allowed answers: 1 for active, -1 for inactive

Consider the following illustrative entries.
COc1ccccc1/C=C/C(=O)c1ccccc1 ... -1
COc1ccc(Cn2c3c(cc(OS(=O)(=O)C(F)(F)F)c2=O)Cc2ccccc2-3)cc1 ... -1
COc1cc2c(=O)n(CCN)c3c4cc5c(cc4ccc3c2cc1OC)OCO5 ... 1
COc1cc(-c2cn(-c3ccc(Cl)c(Cl)c3)c(=O)n2C(C)=O)cc(OC)c1OC ... -1
OCCNc1ncnc2c1ncn2Cc1cccc(COc2cccc(OCc3cccc(Cn4cnc5c(NCCO)ncnc54)c3)c2)c1 ... -1

Problem: Assay outcome for CCC[n+]1cc2cc(OC)c(OC)cc2c2c1-c1cc3c(cc1C2)OCO3 : what was it?
Result: 1

Problem: Assay outcome for Nc1ccccc1C#C/C=C\C#Cc1ccccc1[N+](=O)[O-] : what was it?
Result: -1

Problem: Assay outcome for CC[O-].CC[O-].O=S(=O)([O-])c1ccc([O-])c2ncccc12.O=S(=O)([O-])c1ccc([O-])c2ncccc12.[Ti+4] : what was it?
Result: -1

Problem: Assay outcome for CCn1c(-c2nonc2N)nc2c(C#CC(C)(C)O)nc(OCCNC)cc21 : what was it?
Result: -1

Problem: Assay outcome for CC[C@H](Nc1nc(C)nc(N)c1C#N)c1nc2cccc(NCc3ccc(C(=O)NO)cc3)c2c(=O)n1-c1ccccc1 : what was it?
Result: -1

Problem: Assay outcome for CNCCn1c(=O)c2cc(OC)c(OC)cc2c2ccc3cc4c(cc3c21)OCO4 : what was it?
Result: 1

Problem: Assay outcome for O=C1c2cc(Cl)ccc2-c2c1c1ccc([N+](=O)[O-])cc1c(=O)n2CCCBr : what was it?
Result: -1
